FYI, the data here is from patent US11059789B2.

target: PKCe (Homo sapiens (Human), UniProt Q02156)
Sequence (Q02156 whole entry, species assumed): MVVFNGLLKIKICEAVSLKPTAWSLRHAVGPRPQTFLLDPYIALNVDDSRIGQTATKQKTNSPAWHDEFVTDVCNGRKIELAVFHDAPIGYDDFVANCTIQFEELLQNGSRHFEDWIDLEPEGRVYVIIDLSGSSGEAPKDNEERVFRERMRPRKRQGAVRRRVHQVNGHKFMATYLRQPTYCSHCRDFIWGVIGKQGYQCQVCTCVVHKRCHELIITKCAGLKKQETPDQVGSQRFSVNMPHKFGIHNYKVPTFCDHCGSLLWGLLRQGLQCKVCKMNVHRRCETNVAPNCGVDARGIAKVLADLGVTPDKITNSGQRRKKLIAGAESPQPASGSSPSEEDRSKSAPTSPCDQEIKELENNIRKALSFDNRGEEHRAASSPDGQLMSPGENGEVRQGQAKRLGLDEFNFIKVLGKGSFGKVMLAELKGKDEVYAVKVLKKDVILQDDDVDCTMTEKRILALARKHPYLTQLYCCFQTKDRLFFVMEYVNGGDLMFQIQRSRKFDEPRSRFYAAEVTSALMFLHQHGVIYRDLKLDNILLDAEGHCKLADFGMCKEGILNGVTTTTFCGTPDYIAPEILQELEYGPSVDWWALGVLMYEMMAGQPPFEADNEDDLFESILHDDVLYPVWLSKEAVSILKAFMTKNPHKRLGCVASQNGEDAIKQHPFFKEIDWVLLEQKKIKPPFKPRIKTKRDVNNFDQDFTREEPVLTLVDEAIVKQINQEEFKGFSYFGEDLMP
Structures can show the parent of a compound that is named as a salt.
Provide the recorded IC50 for the entries that follow.
Give the number; nM is assumed, so skip it.

Q: Look up IC50: `C[C@@H]1C[C@H]2[C@@H]3CCC4=CC(=O)C=C[C@]4(C)[C@@]3(F)[C@@H](O)C[C@]2(C)[C@@]1(O)C(=O)COC(=O)CCC(=O)OCc1ccc([C@@H](CN)C(=O)Nc2ccc3cnccc3c2)cc1`
Result: 1580

Q: What about this molecule? C[C@]12C=CC(=O)C=C1CC[C@@H]1[C@@H]2[C@@H](O)C[C@@]2(C)[C@H]1CC[C@]2(O)C(=O)COC(=O)C1CC1C(=O)OCc1ccc([C@@H](CN)C(=O)Nc2ccc3cnccc3c2)cc1 (stereo partly shown)
Result: 4160

Q: What about this molecule? C[C@@H]1C[C@H]2[C@@H]3CCC4=CC(=O)C=C[C@]4(C)[C@@]3(F)[C@@H](O)C[C@]2(C)[C@@]1(O)C(=O)COC(=O)C[C@H](N)C(=O)OCc1ccc([C@@H](CN)C(=O)Nc2ccc3cnccc3c2)cc1 [Example 83, trihydrochloride]
Result: 154

Q: What about this molecule? C[C@@H]1C[C@H]2[C@@H]3CCC4=CC(=O)C=C[C@]4(C)[C@@]3(F)[C@@H](O)C[C@]2(C)[C@@]1(O)C(=O)COC(=O)c1ccc(C(=O)OCc2ccc([C@@H](CN)C(=O)Nc3ccc4cnccc4c3)cc2)cc1 [Example 66, dihydrochloride]
Result: 3610

Q: What about this molecule? `CC1(C)O[C@@H]2C[C@H]3[C@@H]4CCC5=CC(=O)C=C[C@]5(C)[C@@]4(F)[C@@H](O)C[C@]3(C)[C@]2(C(=O)COC(=O)CCC(=O)OCc2ccc([C@@H](CN)C(=O)Nc3ccc4cnccc4c3)cc2)O1`
Result: 1580

Q: What about this molecule? C[C@@H]1C[C@H]2[C@@H]3CCC4=CC(=O)C=C[C@]4(C)[C@@]3(F)[C@@H](O)C[C@]2(C)[C@@]1(O)C(=O)COC(=O)C1CC1C(=O)OCc1ccc([C@@H](CN)C(=O)Nc2ccc3cnccc3c2)cc1 (stereo partly shown)
Result: 3460

Q: What about this molecule? `CC1(C)O[C@@H]2C[C@H]3[C@@H]4C[C@H](F)C5=CC(=O)C=C[C@]5(C)[C@@]4(F)[C@@H](O)C[C@]3(C)[C@]2(C(=O)COC(=O)CCC(=O)OCc2ccc([C@@H](CN)C(=O)Nc3ccc4cnccc4c3)cc2)O1`
Result: 244
